- Tested on: mSPHK2 (Mus musculus, UniProt Q9JIA7)
- Construct: The open reading frames of mSPHK2 and hSPHK2 encode polypeptides of 617 and 618 amino acids, respectively; made in house; host or cells: HEK293 (ATCC CRL-1573), transient transfection; unpurified cytosol or whole lysate
- Sequence (Q9JIA7 whole entry): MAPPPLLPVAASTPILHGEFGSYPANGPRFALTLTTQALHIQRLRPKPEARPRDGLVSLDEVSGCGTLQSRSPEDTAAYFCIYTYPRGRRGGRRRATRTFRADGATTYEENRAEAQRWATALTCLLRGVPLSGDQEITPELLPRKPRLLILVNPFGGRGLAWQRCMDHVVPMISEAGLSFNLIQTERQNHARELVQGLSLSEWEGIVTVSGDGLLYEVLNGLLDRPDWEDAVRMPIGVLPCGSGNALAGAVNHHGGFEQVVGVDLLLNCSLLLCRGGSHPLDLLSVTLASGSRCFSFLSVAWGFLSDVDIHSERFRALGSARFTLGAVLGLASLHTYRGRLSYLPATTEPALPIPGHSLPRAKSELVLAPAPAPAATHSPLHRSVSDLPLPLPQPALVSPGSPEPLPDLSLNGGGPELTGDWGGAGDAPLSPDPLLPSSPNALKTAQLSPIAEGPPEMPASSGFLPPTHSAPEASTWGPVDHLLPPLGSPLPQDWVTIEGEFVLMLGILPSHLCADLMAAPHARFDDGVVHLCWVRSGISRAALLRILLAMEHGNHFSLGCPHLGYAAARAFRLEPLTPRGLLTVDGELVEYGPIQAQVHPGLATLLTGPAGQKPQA
- Assay remarks: SPHK activity assay with recombinant mSPHK2 (cytosol/lysates of transfected HEK293 cells, [g-32P]ATP, TLC)
- Assay type: biochemical
- Stated conditions: lipids 50 mM as printed; cytosol of HEK293 cells transfected with mSPHK2; compared with D-erythro-sphingosine
Experimental readout: SPHK-dependent phosphorylation by SPHK2 (substrate specificity)

Compound: CCCCCCCCCCCCC/C=C/[C@@H](O)[C@H](CO)NC(=O)CCCCCCCCCCCCCCC [C16-ceramide]
Result: not phosphorylated
//
Compound: CCCCCCCCCCCCC/C=C/[C@@H](O)[C@H](CO)NC(C)=O [C2-ceramide]
Result: not phosphorylated
